Tested on: renal cancer (786-0, A498, ACHN, CAKI-1, RXF 393, SN12C, TK-10, and UO-31)
Test summary: NCI in vitro anticancer screen, renal cancer subpanel
Format: cell-based, human
Cond: Homo sapiens; subpanel value; read-out: GI50 Renal cancer
Could you please report measured log10(GI50) for the items listed next?
// stored as log10 of GI50 expressed in µM

Enquiry: Using the record for `CC(=O)c1cccc(Nc2c3ccccc3nc3occc23)c1` , report its log10(GI50).
Return: 1.03

Enquiry: What value of measured log10(GI50) is listed for `C/C(=N\O)c1cccc(Nc2c3ccccc3nc3occc23)c1` ?
Return: 1.00

Enquiry: I am curious: what log10(GI50) value has been reported for `CO/N=C(\C)c1cccc(Nc2c3ccccc3nc3occc23)c1` ?
Return: 1.10

Enquiry: Which value of log10(GI50) has been reported for C=C1CC(C)(c2ccc(Nc3c4ccccc4nc4occc34)cc2)OC1=O (centres unmarked) in the records?
Return: 0.68

Enquiry: Reported log10(GI50) for COc1cc(NS(C)(=O)=O)ccc1Nc1c2ccccc2nc2ccccc12 [m-AMSA, reference compound] : what is it?
Return: -0.06

----------
System: renal cancer (786-0, A498, ACHN, CAKI-1, RXF 393, SN12C, TK-10, and UO-31)
Test summary: NCI in vitro anticancer screen, renal cancer subpanel
Assay type: cell-based, human
Cond: Homo sapiens; subpanel value; read-out: GI50 Renal cancer
Give measured GI50 for each item. Keep answers brief.
// return numeric value only (unit: µM, not printed)

Enquiry: Report GI50 for `CC(=O)c1ccc(Nc2c3ccccc3nc3occc23)cc1` please.
Return: 0.035

Enquiry: Can you look up the measured GI50 of `CO/N=C(\C)c1ccc(Nc2c3ccccc3nc3occc23)cc1` for me?
Return: 1.63

Enquiry: Fill in the blank: the reported GI50 of `Nc1cc(CO)cc(Nc2c3ccccc3nc3occc23)c1` is ____.
Return: 37.7

----------
Kindly supply the reported GI50 values for the records listed here.
System: leukemia (CCRF-CEM, HL-60 (TB), K-562, MOLT-4, RPMI-8226, and SR)
Test summary: NCI in vitro anticancer screen, leukemia subpanel
Format: cell-based
Cond: Homo sapiens; subpanel value; concentration causing 50% cell growth inhibition; read-out: GI50 Leukemia
Reply with just the number (in nM).

Enquiry: Which GI50 reading was recorded for the compound CO/N=C(\C)c1ccc(Nc2c3ccccc3nc3occc23)cc1 [Compound 8b] ?
Return: 360

Enquiry: Requested field: GI50. Item: CC(=O)c1cccc(Nc2c3ccccc3nc3occc23)c1 [Compound 7]
Return: 3220

----------
Tested on: NCI's full panel of 60 human cancer cell lines
Test summary: NCI in vitro anticancer screen, full panel mean
Type: cell-based
Cond: mean over all cell lines; read-out: mean GI50
Property measured: log10 GI50 (log10 of the value in nM)
The figures below represent log10 of GI50, where GI50 is stated in nM.

Enquiry: Requested read-out: log10 GI50. Entry: COc1cc(NS(C)(=O)=O)ccc1Nc1c2ccccc2nc2ccccc12 [m-AMSA, reference compound]
Return: 2.64

Enquiry: Data request, read-out log10 GI50, for `C/C(=N\O)c1ccc(Nc2c3ccccc3nc3occc23)cc1`
Return: 2.54

Enquiry: Given `CO/N=C(\C)c1cccc(Nc2c3ccccc3nc3occc23)c1` , state its recorded log10 GI50.
Return: 3.88

Enquiry: Query: log10 GI50; subject: `CO/N=C(\C)c1ccc(Nc2c3ccccc3nc3occc23)cc1`
Return: 2.68

Enquiry: Name the recorded log10 GI50 for `CC(=O)c1ccc(Nc2c3ccccc3nc3occc23)cc1` .
Return: 1.40

Enquiry: Quick one: log10 GI50 of `CC(=O)c1cccc(Nc2c3ccccc3nc3occc23)c1` ?
Return: 3.72

Enquiry: What measured log10 GI50 goes with `C/C(=N\O)c1cccc(Nc2c3ccccc3nc3occc23)c1` ?
Return: 3.75
